A collection of compounds and their measured IC50
# measured.on: Human P2Y12 receptor (Homo sapiens, UniProt Q9H244)
# Construct: expressed in transfected cells; host or cells: HEK cells
# Sequence (Q9H244 whole entry): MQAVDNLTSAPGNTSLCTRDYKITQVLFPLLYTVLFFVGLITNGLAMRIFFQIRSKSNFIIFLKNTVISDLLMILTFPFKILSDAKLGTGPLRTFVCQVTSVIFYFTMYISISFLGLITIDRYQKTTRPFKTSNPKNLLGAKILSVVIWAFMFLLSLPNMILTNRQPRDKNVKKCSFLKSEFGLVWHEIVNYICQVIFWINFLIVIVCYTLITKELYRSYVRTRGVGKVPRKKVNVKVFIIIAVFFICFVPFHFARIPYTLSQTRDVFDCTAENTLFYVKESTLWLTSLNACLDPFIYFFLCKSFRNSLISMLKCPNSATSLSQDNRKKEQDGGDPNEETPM
# test.details: Human P2Y12 receptor cell membrane binding assay with [3H] 2-Mes-ADP
# condition.label: 1 nM [3H] 2-Mes-ADP, membranes of HEK cells expressing P2Y12 receptor; read-out: Binding activity (IC50)
Give the quantity in nM, number only.

Completed entries (count: 3):
CCCc1cc2c(N3CCn4c(nnc4C(F)(F)F)C3)nc(COc3ccccc3C(=O)OC)nc2s1 [Example 4-24]	700
CCCc1cc2c(N3CCn4c(nnc4C(F)(F)F)C3)nc(N3CC[C@H](NC(=O)c4ccco4)C3)nc2s1 [Example 1-112]	50
CCCc1cc2c(N3CCn4c(nnc4C(F)(F)F)C3)nc(Oc3ccc(CC(=O)O)cc3)nc2s1 [Example 3-40]	230

Entry CCCc1cc2c(N3CCn4c(nnc4C(F)(F)F)C3)nc(Oc3ccccc3C(=O)OC)nc2s1 [Example 3-32] : IC50 on Human P2Y12 receptor (Homo sapiens, UniProt Q9H244) = 650
